- Tested on: HepG2
- assay-comment: Cytotoxic activity against mammalian cells in tissue culture (MTT)
- Assay type: cell-based, human
- experimental-setup: HepG2, 120 h, MTT
quantity-measured: Cytotoxicity IC50 HepG2

compound	value-observed
CC1OC(O[C@H]2/C=C/C=C/C=C/C=C/CC/C=C/C=C/[C@H](C)[C@@H](O)[C@@H](C)[C@H](C)OC(=O)C[C@H](O)C[C@H](O)C[C@H](O)CC[C@@H](O)[C@H](O)CC3(O)C[C@H](O)[C@@H](C(=O)O)[C@H](C2)O3)C(O)C(NC(=S)NCCCN(C)C)C1O (stereo partly shown) [Compound N17]	>100 µg/mL
CCN(CC)[C@@H](Cc1ccccc1)C(=O)NC1C(O)C(C)OC(O[C@H]2/C=C/C=C/C=C/C=C/CC/C=C/C=C/[C@H](C)[C@@H](O)[C@@H](C)[C@H](C)OC(=O)C[C@H](O)C[C@H](O)C[C@H](O)CC[C@@H](O)[C@H](O)CC3(O)C[C@H](O)[C@@H](C(=O)O)[C@H](C2)O3)C1O (stereo partly shown) [Compound N46]	>100 µg/mL
CC1OC(O[C@H]2/C=C/C=C/C=C/C=C/CC/C=C/C=C/[C@H](C)[C@@H](O)[C@@H](C)[C@H](C)OC(=O)C[C@H](O)C[C@H](O)C[C@H](O)CC[C@@H](O)[C@H](O)CC3(O)C[C@H](O)[C@@H](C(=O)O)[C@H](C2)O3)C(O)C(NCc2ccccc2)C1O (stereo partly shown) [Compound N21, N-benzylnystatin A1]	68.3 ± 8.06 µg/mL
CCN(CC)CCNC(=S)NC1C(O)C(C)OC(O[C@H]2/C=C/C=C/C=C/C=C/CC/C=C/C=C/[C@H](C)[C@@H](O)[C@@H](C)[C@H](C)OC(=O)C[C@H](O)C[C@H](O)C[C@H](O)CC[C@@H](O)[C@H](O)CC3(O)C[C@H](O)[C@@H](C(=O)O)[C@H](C2)O3)C1O (stereo partly shown) [Compound N14]	>100 µg/mL

---

Attribute: Antifungal activity Candida tropicalis KKP 334 MIC
- Test system: Candida tropicalis KKP 334
- assay-comment: Antifungal activity in vitro, serial dilution in RPMI 1640
- Format: cell-based
- experimental-setup: Table 2A; RPMI 1640, pH 7.0
quantity-measured: Antifungal activity Candida tropicalis KKP 334 MIC

compound	value-observed
CC1OC(O[C@H]2/C=C/C=C/C=C/C=C/CC/C=C/C=C/[C@H](C)[C@@H](O)[C@@H](C)[C@H](C)OC(=O)C[C@H](O)C[C@H](O)C[C@H](O)CC[C@@H](O)[C@H](O)CC3(O)C[C@H](O)[C@@H](C(=O)O)[C@H](C2)O3)C(O)C(NC2CC(=O)N(CCN3CCCCC3)C2=O)C1O (stereo partly drawn)	2 µg/mL
C[C@@H]1[C@H](O)[C@@H](C)/C=C/C=C/CC/C=C/C=C/C=C/C=C/[C@H](O[C@@H]2O[C@H](C)[C@@H](O)[C@H](NC(=S)NCCN3CCN(C)CC3)[C@@H]2O)C[C@@H]2O[C@](O)(C[C@@H](O)C[C@@H](O)[C@H](O)CC[C@@H](O)C[C@@H](O)CC(=O)O[C@H]1C)C[C@H](O)[C@H]2C(=O)O	8 µg/mL
C[C@@H]1[C@H](O)[C@@H](C)/C=C/C=C/CC/C=C/C=C/C=C/C=C/[C@H](O[C@@H]2O[C@H](C)[C@@H](O)[C@H](NC(=S)NCCN(C)C)[C@@H]2O)C[C@@H]2O[C@](O)(C[C@@H](O)C[C@@H](O)[C@H](O)CC[C@@H](O)C[C@@H](O)CC(=O)O[C@H]1C)C[C@H](O)[C@H]2C(=O)O	4 µg/mL

From: patent US9447136B2
